run_conditions: 308.15 K; 101.33 kPa; Liquid
Outcome label depends on mass density relative to 800 kg/m3: at/above gives 1, below gives 0.

> print(dat)
                  molecule  group
1  CCCCCl [1-chlorobutane]      1

Note: attention shifts to another entry.
mass density >= 800 kg/m3 for CC(C)(C)O [2-methylpropan-2-ol] ? 0

----------
run_conditions: 288.15 K; 101.33 kPa; Liquid
Known viscosity of a selection of compounds
Respond with the bare value in mPa·s.

> print(dat)
             compound  measured.result
1  CCCCO [butan-1-ol]            3.346

For reference, reported viscosity for CC(C)CO [2-methyl-1-propanol] stands at 4.805

For reference, reported viscosity for CCCCCl [1-chlorobutane] stands at 0.477

For reference, reported viscosity for CCC(C)O (centres undefined) [butan-2-ol] stands at 4.509
